system: Tyrosine-protein phosphatase non-receptor type 2 (Homo sapiens)
Sequence (P17706 whole entry): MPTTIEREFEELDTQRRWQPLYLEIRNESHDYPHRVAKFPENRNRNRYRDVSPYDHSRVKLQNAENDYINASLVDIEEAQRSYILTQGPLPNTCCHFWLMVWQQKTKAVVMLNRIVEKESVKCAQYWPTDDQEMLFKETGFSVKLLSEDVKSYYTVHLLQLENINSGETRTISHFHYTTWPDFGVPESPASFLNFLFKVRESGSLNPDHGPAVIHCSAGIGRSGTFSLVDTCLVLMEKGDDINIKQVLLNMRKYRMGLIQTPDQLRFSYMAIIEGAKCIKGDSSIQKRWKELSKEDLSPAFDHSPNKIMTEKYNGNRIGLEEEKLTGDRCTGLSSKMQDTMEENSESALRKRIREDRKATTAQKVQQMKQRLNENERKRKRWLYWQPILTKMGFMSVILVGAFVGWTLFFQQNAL
assayProtocol: Inhibitor Assay
conditionLabel: 30 °C
measure: pIC50
Scale: negative log10 of molar concentration, which is what pIC50 denotes.

Query: pIC50; subject: `O=C(O)C(=O)c1ccc(-n2cc(CO[C@H]3O[C@H](COCc4ccccc4)[C@@H](OCc4ccccc4)[C@H](OCc4ccccc4)[C@H]3OCc3ccccc3)nn2)cc1` 5.19

---

system: Receptor-type tyrosine-protein phosphatase F (Homo sapiens, UniProt P10586)
Sequence (P10586 whole entry): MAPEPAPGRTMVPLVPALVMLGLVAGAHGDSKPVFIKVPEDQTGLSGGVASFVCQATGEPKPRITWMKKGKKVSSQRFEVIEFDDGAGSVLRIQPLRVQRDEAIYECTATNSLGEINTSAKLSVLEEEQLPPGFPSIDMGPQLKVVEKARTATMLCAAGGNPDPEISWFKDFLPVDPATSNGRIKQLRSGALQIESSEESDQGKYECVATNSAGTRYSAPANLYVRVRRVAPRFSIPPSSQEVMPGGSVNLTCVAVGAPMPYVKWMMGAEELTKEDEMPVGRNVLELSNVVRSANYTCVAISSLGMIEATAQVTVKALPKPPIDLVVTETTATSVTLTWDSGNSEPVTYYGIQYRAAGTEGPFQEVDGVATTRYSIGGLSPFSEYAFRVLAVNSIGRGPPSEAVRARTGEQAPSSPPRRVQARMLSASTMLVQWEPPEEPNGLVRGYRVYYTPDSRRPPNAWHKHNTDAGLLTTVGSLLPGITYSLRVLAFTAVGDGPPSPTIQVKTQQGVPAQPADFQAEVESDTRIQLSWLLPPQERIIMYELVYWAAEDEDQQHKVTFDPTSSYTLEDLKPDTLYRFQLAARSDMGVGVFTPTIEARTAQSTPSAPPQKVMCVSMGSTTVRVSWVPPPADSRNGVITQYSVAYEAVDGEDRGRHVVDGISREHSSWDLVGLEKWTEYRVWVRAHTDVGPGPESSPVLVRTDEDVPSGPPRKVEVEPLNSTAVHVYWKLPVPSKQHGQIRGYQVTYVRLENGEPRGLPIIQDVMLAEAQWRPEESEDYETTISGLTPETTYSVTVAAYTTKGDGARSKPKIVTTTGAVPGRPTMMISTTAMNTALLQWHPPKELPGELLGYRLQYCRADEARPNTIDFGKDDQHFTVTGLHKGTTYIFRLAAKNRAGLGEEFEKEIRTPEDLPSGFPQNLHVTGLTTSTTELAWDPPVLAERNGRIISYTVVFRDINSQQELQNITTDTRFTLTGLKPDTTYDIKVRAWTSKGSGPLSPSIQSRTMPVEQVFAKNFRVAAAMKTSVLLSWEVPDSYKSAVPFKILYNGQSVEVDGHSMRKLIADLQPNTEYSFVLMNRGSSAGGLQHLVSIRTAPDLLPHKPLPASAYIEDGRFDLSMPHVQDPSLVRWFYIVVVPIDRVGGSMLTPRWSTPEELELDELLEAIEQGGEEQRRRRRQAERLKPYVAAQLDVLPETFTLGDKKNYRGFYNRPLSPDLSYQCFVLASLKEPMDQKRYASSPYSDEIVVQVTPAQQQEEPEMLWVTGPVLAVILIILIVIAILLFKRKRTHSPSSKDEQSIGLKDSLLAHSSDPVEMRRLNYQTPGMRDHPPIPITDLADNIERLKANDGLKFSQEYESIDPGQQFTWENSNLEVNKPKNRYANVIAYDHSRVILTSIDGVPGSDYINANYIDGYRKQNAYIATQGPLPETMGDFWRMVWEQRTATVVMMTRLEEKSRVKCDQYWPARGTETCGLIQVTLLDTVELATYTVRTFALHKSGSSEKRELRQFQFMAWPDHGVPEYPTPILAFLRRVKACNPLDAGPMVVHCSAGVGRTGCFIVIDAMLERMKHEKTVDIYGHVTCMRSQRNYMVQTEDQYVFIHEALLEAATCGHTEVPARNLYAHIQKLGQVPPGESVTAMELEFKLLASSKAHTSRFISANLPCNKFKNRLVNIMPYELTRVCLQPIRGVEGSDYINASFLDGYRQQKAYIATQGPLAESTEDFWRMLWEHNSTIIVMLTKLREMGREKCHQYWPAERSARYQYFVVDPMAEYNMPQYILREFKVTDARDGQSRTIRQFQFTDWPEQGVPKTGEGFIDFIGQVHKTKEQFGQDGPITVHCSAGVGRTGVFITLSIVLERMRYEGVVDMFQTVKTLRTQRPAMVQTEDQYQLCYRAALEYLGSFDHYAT
assayProtocol: Inhibitor Assay
conditionLabel: 30 °C
pIC50: −log10 of the molar value.
measure: pIC50

Query: pIC50; subject: `CO[C@H]1O[C@H](COCc2cn(-c3ccc(C(=O)C(=O)O)cc3)nn2)[C@@H](OCc2ccccc2)[C@H](OCc2ccccc2)[C@H]1OCc1ccccc1` < 4.00

Measured values drawn from BindingDB's records for doi:10.1016/j.carres.2010.10.023 for this set.
